These entries and their values trace back to patent US20100120715A1.

Molecular target: Class C P99 AmpC (Enterobacter cloacae, UniProt P05364)
Sequence (P05364 21-381): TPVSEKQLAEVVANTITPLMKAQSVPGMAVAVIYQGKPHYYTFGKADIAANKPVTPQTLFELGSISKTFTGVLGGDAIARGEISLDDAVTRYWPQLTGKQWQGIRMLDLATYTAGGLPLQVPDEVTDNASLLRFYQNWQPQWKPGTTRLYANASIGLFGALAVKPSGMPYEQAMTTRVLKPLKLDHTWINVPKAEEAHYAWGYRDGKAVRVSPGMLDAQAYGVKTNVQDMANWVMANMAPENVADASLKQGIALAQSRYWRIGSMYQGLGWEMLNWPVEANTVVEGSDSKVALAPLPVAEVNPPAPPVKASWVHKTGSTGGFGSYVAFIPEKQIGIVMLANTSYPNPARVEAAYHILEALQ
test-readout: IC50

- compound: "COc1cccc(C(=O)N[C@@H](Cc2cccc(C(=O)O)c2O)B(O)O)c1"
  IC50: "< 10 nM"
- compound: "NCC(=O)N[C@@H](Cc1cccc(C(=O)O)c1O)B(O)O.O=CO [Example 41, formate salt]"
  IC50: "> 1000 nM"

Please examine the following record next.
Input: I have this compound here, CCCCC(=O)N[C@@H](Cc1cccc(C(=O)O)c1O)B(O)O , and I need its recorded IC50.
Output: 10 to 100 nM

* * *

Molecular target: Class A carbapenemase KPC-2 (Klebsiella pneumoniae, UniProt Q9F663)
Sequence (Q9F663 25-293 limits assumed): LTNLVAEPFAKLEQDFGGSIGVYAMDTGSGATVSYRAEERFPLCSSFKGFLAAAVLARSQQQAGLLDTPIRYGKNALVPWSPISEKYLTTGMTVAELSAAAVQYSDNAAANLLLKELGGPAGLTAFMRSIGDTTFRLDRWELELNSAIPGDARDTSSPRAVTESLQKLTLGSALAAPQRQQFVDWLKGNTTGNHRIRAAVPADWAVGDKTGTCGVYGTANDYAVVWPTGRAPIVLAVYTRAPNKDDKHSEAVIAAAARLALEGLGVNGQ
Assay: β-lactamase enzyme inhibition (nitrocefin hydrolysis), KPC-2
Conditions: purified enzyme; nitrocefin 100 μM, PBS pH 7.0; read-out: KPC-2 IC50 Range
test-readout: IC50

- compound: "Cc1nc(-c2cccc(C(=O)N[C@@H](Cc3cccc(C(=O)O)c3O)B(O)O)c2)no1"
  IC50: "< 10 nM"
- compound: "O=C(Cc1cccs1)N[C@@H](Cc1cccc(C(=O)O)c1O)B(O)O"
  IC50: "< 10 nM"
- compound: "Cl.O=C(Cc1ccncc1)N[C@@H](Cc1cccc(C(=O)O)c1O)B(O)O [Example 52, hydrochloride]"
  IC50: "< 10 nM"
- compound: "O=C(N[C@@H](Cc1cccc(C(=O)O)c1O)B(O)O)c1cn2ccsc2n1"
  IC50: "100 to 1000 nM"
- compound: "O=C(N[C@@H](Cc1cccc(C(=O)O)c1O)B(O)O)c1cnccn1"
  IC50: "< 10 nM"

Input: I have this compound here, CCCCCCC(=O)N[C@@H](Cc1cccc(C(=O)O)c1O)B(O)O , and I need its recorded IC50.
Output: 10 to 100 nM

* * *

The following molecules are listed with their measured pIC50 values.
Biological target: Class A ESBL SHV-5 (Klebsiella pneumoniae, UniProt P0A3M1)
Construct: made in house; host or cells: E. coli BL21(DE3) for purified enzyme; E. coli cells containing SHV-5 for extracts
Sequence (P0A3M1 22-286): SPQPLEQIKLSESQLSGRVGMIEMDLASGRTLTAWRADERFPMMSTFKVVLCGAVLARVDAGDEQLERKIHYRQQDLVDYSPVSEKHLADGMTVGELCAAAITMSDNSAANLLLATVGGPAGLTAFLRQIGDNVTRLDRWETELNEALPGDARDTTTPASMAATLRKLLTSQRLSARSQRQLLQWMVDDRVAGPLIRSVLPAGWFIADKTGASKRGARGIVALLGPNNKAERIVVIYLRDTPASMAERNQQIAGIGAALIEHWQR
Assay type: biochemical, E. coli
Conditions: purified beta-lactamase enzyme (Examples 1 and 31-64); nitrocefin 100 μM, PBS pH 7.0; read-out: SHV-5 IC50 Range
pIC50: −log10 of the molar value.

Input: I have this molecule here, Cn1ccc(C(=O)N[C@@H](Cc2cccc(C(=O)O)c2O)B(O)O)n1 [Example 53] , and I need its recorded pIC50.
Output: 6.00 to 7.00

* * *

Molecular target: Class A ESBL SHV-5 (Klebsiella pneumoniae)
Construct: made in house; host or cells: E. coli BL21(DE3) for purified enzyme; E. coli cells containing SHV-5 for extracts
Type: biochemical, E. coli
Settings: purified beta-lactamase enzyme (Examples 1 and 31-64); nitrocefin 100 μM, PBS pH 7.0; read-out: SHV-5 IC50 Range
pIC50: −log10 of the molar value.
test-readout: pIC50

Input: I have this compound here, O=C(N[C@@H](Cc1cccc(C(=O)O)c1O)B(O)O)c1ccno1 , and I need its recorded pIC50.
Output: > 8.00

Input: I have this compound here, O=C(N[C@@H](Cc1cccc(C(=O)O)c1O)B(O)O)c1ccc(O)cc1 , and I need its recorded pIC50.
Output: 6.00 to 7.00

Input: I have this compound here, O=C(N[C@@H](Cc1cccc(C(=O)O)c1O)B(O)O)c1cncnc1 , and I need its recorded pIC50.
Output: 7.00 to 8.00

Input: I have this compound here, O=C(N[C@@H](Cc1cccc(C(=O)O)c1O)B(O)O)c1ccc(Cl)cc1 , and I need its recorded pIC50.
Output: 7.00 to 8.00

Input: I have this compound here, Nc1nc(CC(=O)N[C@@H](Cc2cccc(C(=O)O)c2O)B(O)O)cs1.O=CO [Example 39, formate salt] , and I need its recorded pIC50.
Output: > 8.00

Input: I have this compound here, O=C(CN1C(=O)c2ccccc2C1=O)N[C@@H](Cc1cccc(C(=O)O)c1O)B(O)O , and I need its recorded pIC50.
Output: > 8.00
